Target: T1, human CD3 epsilon (Acro Cat #CDE-H5223) (human, UniProt P07766 23-126)
T1 construct: Bought recombinant protein; also called rhCD3E
T1 sequence (P07766 23-126 limits assumed): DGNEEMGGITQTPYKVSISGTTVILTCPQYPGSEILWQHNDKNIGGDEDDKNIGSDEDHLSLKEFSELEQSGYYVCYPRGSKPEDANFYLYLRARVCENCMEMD
Assay: SPR (Biacore), antibody captured, human CD3 epsilon analyte
Property: koff (s⁻¹)
Respond numerically; units are s⁻¹ and should not be typed.

Look up koff for this binder: SRP 2037-B10 Y61D/LC6 (antibody, human IgG1, kappa, V domains shown, human IgG1, kappa) VH: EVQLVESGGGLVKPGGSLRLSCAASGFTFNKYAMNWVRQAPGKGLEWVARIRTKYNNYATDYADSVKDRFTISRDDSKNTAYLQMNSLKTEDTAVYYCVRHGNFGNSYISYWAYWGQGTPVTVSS VL: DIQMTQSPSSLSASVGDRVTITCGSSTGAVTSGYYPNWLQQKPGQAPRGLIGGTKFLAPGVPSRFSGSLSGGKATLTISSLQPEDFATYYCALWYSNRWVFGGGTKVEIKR
0.000369

Fill in: koff of 2037-B10_Hc-F104D (antibody, human IgG1, lambda, V domains shown, human IgG1, lambda; also called SRP 2037 F104D; 2037-B10_VH-F104D) VH: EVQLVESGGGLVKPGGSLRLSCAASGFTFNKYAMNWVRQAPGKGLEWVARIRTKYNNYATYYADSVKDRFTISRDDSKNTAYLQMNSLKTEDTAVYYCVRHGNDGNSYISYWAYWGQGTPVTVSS VL: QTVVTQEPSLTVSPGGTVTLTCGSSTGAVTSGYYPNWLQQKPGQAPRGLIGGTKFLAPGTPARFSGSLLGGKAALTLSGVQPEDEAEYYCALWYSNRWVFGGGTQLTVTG is ___
0.000241

Bench note: what koff did SRP 2037-B10 S107D/R97D (antibody, human IgG1, lambda, V domains shown, human IgG1, lambda) VH: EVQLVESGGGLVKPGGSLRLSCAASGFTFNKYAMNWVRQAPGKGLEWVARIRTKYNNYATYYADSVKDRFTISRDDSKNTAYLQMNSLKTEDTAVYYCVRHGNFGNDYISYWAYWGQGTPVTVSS VL: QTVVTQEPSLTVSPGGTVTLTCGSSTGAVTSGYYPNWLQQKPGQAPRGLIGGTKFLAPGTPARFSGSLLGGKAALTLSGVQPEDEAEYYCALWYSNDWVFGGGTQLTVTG show?
0.000474
